- experimentNotes: Example 2: repeat of the Example 1 study, with edaravone metabolites in plasma
- Type: in vivo, human
- conditions: both sexes, human, plasma, iv; Example 2, i.v. infusion 60 mg
- Description: The study described in Example 1 was repeated, again using 18 healthy male and female human subjects.
observable: AUC(0-t) (ng·h/mL)
Record the value in ng·h/mL, omitting the unit from your answer.

Exercise: Return AUC(0-t) for the following molecule: CC1=NN(c2ccccc2)C(=O)C1
Key: 1220

* * *

- experimentNotes: Example 2: repeat of the Example 1 study, with edaravone metabolites in plasma
- Assay type: in vivo, human
- conditions: both sexes, human, plasma, iv; Example 2, i.v. infusion (60 mg), 0.5 hrs
observable: concentration at 0.5 hrs

Exercise: Return concentration at 0.5 hrs for the following compound: CC1=NN(c2ccccc2)C(=O)C1
Key: 696 ng/mL
